- Experimental target: TBK1 (Homo sapiens (Human), UniProt Q9UHD2)
- Sequence (Q9UHD2 whole entry): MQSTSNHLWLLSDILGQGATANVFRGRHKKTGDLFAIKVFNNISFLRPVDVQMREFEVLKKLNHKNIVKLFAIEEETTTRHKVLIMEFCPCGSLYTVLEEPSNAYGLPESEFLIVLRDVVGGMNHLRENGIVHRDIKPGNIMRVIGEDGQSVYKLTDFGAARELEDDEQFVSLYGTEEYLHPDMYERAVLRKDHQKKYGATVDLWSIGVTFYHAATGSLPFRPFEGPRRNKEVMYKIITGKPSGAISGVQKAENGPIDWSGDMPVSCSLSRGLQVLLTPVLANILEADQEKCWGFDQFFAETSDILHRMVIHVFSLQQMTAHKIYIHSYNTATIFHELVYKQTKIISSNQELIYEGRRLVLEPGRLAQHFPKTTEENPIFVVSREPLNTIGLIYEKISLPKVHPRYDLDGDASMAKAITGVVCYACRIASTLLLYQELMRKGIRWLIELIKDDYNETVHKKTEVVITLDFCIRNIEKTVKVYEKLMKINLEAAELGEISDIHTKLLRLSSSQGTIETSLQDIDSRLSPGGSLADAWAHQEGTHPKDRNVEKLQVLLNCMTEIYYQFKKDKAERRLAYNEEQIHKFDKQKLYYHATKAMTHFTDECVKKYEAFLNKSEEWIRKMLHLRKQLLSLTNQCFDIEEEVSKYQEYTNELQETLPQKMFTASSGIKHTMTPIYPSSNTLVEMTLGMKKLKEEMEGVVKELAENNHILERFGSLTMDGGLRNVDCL
- Test details: Lanthascreen TR-FRET kinase inhibition assay, TBK1
- Assay type: biochemical
- Condition context: 20 μM ATP (apparent Km), 8 nM kinase, 2.5 h
pIC50: −log10 of the molar value.
Assay endpoint: pIC50

Worked set:
{"Compound": "C[C@@H]1CN(c2ccc(Nc3nccc(-c4cnc(N5CC[C@H](O)C5)c(C#N)c4)n3)cn2)CCN1 [DMX-26]", "pIC50": "> 7.52"}
{"Compound": "N#Cc1nc(-c2ccnc(Nc3ccc(CN4CCOCC4)nc3)n2)ccc1N1CC[C@H](O)C1 [DMX-144]", "pIC50": "> 7.52"}
{"Compound": "CN1CCC(Nc2ccc(Nc3nccc(-c4cnc(N5CCC(F)(F)C5)c(C#N)c4)n3)cn2)CC1 [DMX-15]", "pIC50": "> 7.52"}

--- query ---
Query: Which pIC50 value is on record for N#Cc1cc(-c2ccnc(Nc3ccnc(NC(=O)CN4CCOCC4)c3)n2)cnc1N1CC[C@@H](F)C1 [DMX-111] ?
Reply: > 7.82

====

- Experimental target: UniProtKB Q9UHD2
- Test details: Lanthascreen TR-FRET kinase inhibition assay, TBK1
- Format: biochemical
- Experimental: Compounds of the invention (synthesised as described below) were tested for activity against the IKKε and TBK-1 enzyme as follows: Inhibitions studies were performed using a time-resolved fluorescence-based Lanthascreen™ assay. Phosphorylation of a fluorescein-labelled substrate peptide is measured using terbium-labeled phosphospecific antibodies. Kinase inhibition assays (10 μL) were performed at 20° C. in 384-well plate format. […]
pIC50: −log10 of the molar value.
Assay endpoint: pIC50

Query: Which pIC50 value is on record for Cn1cc(Nc2nccc(-c3cnc(N4C5CCC4CC(O)C5)c(C#N)c3)n2)cn1 (stereo not shown) ?
Reply: > 7.82

====

- Experimental target: TBK1 (Homo sapiens (Human), UniProt Q9UHD2)
- Test details: Lanthascreen TR-FRET kinase inhibition assay, TBK1
- Assay type: biochemical
- Condition context: 20 μM ATP (apparent Km), 8 nM kinase, 2.5 h
pIC50: −log10 of the molar value.
Assay endpoint: pIC50

Worked set:
{"Compound": "N#Cc1cc(-c2ccnc(Nc3cccc(C(=O)NC4CCNCC4)c3)n2)cnc1N1CC[C@H](F)C1", "Experimental target": "TBK1 (Homo sapiens (Human), UniProt Q9UHD2)", "pIC50": "> 7.52"}
{"Compound": "N#Cc1cc(-c2ccnc(Nc3ccc(NC(=O)CN4CCNCC4)nc3)n2)cnc1N1CC[C@H](F)C1", "Experimental target": "TBK1 (Homo sapiens (Human), UniProt Q9UHD2)", "pIC50": "> 7.52"}
{"Compound": "CN1CCC(NC(=O)c2cccc(Nc3nccc(-c4cnc(N5CCC(F)(F)C5)c(C#N)c4)n3)c2)CC1", "Experimental target": "TBK1 (Homo sapiens (Human), UniProt Q9UHD2)", "pIC50": "> 7.00"}
{"Compound": "CC(NCc1ccccc1)C(=O)Nc1ccc(Nc2nccc(-c3cnc(N4CC[C@H](F)C4)c(C#N)c3)n2)cn1 (stereo partly shown)", "Experimental target": "TBK1 (Homo sapiens (Human), UniProt Q9UHD2)", "pIC50": "> 7.52"}

--- query ---
Query: Which pIC50 value is on record for N#Cc1cc(-c2ccnc(Nc3ccc(CN4CCOCC4)nc3)n2)cnc1N1CCC(OC(F)F)C1 (stereo not shown) ?
Reply: > 7.00

====

- Experimental target: TBK1 (Homo sapiens (Human), UniProt Q9UHD2)
- Test details: Lanthascreen TR-FRET kinase inhibition assay, TBK1
- Assay type: biochemical
- Condition context: 20 μM ATP (apparent Km), 8 nM kinase, 2.5 h
pIC50: −log10 of the molar value.
The following molecules are shown together with reported pIC50 values.

Worked set:
{"Molecule": "N#Cc1nc(-c2ccnc(Nc3ccc(NC(=O)CN4CC[C@H](F)C4)nc3)n2)ccc1N1CC[C@H](O)C1 [DMX-146]", "Experimental target": "TBK1 (Homo sapiens (Human), UniProt Q9UHD2)", "pIC50": "> 7.52"}
{"Molecule": "N#Cc1cc(-c2ccnc(Nc3ccc(NC(=O)CN4CCOCC4)nc3)n2)cnc1N1CC[C@@H](F)C1 [DMX-112]", "Experimental target": "TBK1 (Homo sapiens (Human), UniProt Q9UHD2)", "pIC50": "> 7.52"}
{"Molecule": "N#Cc1cc(-c2ccnc(Nc3ccc(NC(=O)CN4CCC(O)CC4)nc3)n2)cnc1N1CC[C@H](F)C1 [DMX-29]", "Experimental target": "TBK1 (Homo sapiens (Human), UniProt Q9UHD2)", "pIC50": "> 7.52"}
{"Molecule": "N#Cc1cc(-c2ccnc(Nc3ccc(NC(=O)CN4CC[C@H](F)C4)nc3)n2)cnc1N1CC[C@H](F)C1 [DMX-69]", "Experimental target": "TBK1 (Homo sapiens (Human), UniProt Q9UHD2)", "pIC50": "> 7.00"}
{"Molecule": "Cc1nccn1Cc1ccc(Nc2nccc(-c3ccc(N4CC[C@H](F)C4)c(C#N)n3)n2)cn1 [DMX-151]", "Experimental target": "TBK1 (Homo sapiens (Human), UniProt Q9UHD2)", "pIC50": "> 7.52"}
{"Molecule": "CC(Nc1ncc(-c2ccnc(Nc3ccc(CN4CCOCC4)nc3)n2)cc1C#N)C(N)=O (stereo not shown) [DMX-134]", "Experimental target": "TBK1 (Homo sapiens (Human), UniProt Q9UHD2)", "pIC50": "> 7.00"}

Query: Which pIC50 value is on record for C[C@H]1COCCN1Cc1cc(Nc2nccc(-c3cnc(N4CC[C@H](F)C4)c(C#N)c3)n2)ccn1 [DMX-78] ?
Reply: > 7.82

Query: Which pIC50 value is on record for N#Cc1cc(-c2nc(Nc3ccc(CN4CCOCC4)nc3)ncc2F)cnc1N1CCCOCC1 [DMX-87] ?
Reply: > 7.00

Query: Which pIC50 value is on record for CN(CC1CCOC1)c1ncc(-c2ccnc(Nc3ccc(CN4CCOCC4)nc3)n2)cc1C#N (stereo not shown) [DMX-137] ?
Reply: > 6.00

Query: Which pIC50 value is on record for COCCNCc1ccc(Nc2nccc(-c3cnc(N4CC[C@H](F)C4)c(C#N)c3)n2)cn1 [DMX-77] ?
Reply: > 7.00

Query: Which pIC50 value is on record for N#Cc1cc(-c2ccnc(Nc3ccc(CN4CCOCC4)nc3)n2)cnc1NC1CC1 [DMX-122] ?
Reply: > 7.00

====

- Experimental target: TBK1 (Homo sapiens (Human), UniProt Q9UHD2)
- Test details: Lanthascreen TR-FRET kinase inhibition assay, TBK1
- Type: biochemical
- Condition context: 20 μM ATP (apparent Km), 8 nM kinase, 2.5 h
Assay endpoint: IC50

Worked set:
{"Molecule": "N#Cc1nc(-c2ccnc(Nc3ccc(OCCN4CC[C@H](F)C4)nc3)n2)ccc1N1CC[C@H](F)C1", "Experimental target": "TBK1 (Homo sapiens (Human), UniProt Q9UHD2)", "Assay endpoint": "IC50", "Result": "< 30 nM"}
{"Molecule": "N#Cc1nc(-c2ccnc(Nc3ccc(CN4CCOCC4)nc3)n2)ccc1N1CC[C@H](F)C1", "Experimental target": "TBK1 (Homo sapiens (Human), UniProt Q9UHD2)", "Assay endpoint": "IC50", "Result": "< 15 nM"}

Query: Which IC50 value is on record for Cn1cc(Nc2nccc(-c3cnc(N4CCC[C@H]4C#N)c(C#N)c3)n2)cn1 ?
Reply: < 100 nM

Query: Which IC50 value is on record for CC1CN(c2ncc(-c3ccnc(Nc4ccc(CN5CCOCC5)nc4)n3)cc2C#N)CCO1 (centres unmarked) ?
Reply: < 1000 nM

Query: Which IC50 value is on record for N#Cc1cc(-c2ccnc(Nc3ccn[nH]3)n2)cnc1N1CC[C@H](F)C1 ?
Reply: < 1000 nM

====

- Experimental target: IKKε (Homo sapiens (Human), UniProt Q14164)
- Sequence (Q14164 whole entry): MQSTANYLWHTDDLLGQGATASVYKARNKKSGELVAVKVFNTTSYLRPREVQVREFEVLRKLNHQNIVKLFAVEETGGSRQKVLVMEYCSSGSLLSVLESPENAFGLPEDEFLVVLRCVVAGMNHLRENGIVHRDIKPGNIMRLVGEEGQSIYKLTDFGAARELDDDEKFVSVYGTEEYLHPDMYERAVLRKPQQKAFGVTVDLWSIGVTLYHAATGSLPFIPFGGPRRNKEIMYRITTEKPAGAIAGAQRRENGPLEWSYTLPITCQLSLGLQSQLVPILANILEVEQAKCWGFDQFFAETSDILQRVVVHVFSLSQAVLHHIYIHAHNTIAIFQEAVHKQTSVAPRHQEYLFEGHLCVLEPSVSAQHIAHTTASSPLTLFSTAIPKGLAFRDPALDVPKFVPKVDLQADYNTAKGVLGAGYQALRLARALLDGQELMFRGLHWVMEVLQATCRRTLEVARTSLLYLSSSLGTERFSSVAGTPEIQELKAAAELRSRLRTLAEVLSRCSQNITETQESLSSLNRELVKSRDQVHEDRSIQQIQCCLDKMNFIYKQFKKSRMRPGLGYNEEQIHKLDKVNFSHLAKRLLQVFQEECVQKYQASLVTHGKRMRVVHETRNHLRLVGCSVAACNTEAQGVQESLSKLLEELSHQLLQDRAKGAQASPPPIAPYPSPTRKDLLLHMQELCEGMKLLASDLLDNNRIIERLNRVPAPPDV
- Test details: Lanthascreen TR-FRET kinase inhibition assay, IKKε
- Assay type: biochemical
- Condition context: 20 μM ATP (apparent Km), 2 nM kinase, 1 h
Assay endpoint: IC50

Worked set:
{"Smiles data": "N#Cc1cc(-c2ccnc(Nc3cnn(CCO)c3)n2)cnc1N1CC[C@H](F)C1", "IC50": "< 0.03 µM"}
{"Smiles data": "Cn1cc(Nc2nccc(-c3cnc(N4CCC[C@H]4C#N)c(C#N)c3)n2)cn1", "IC50": "< 1 µM"}
{"Smiles data": "CS(=O)(=O)CCNCc1ccc(Nc2nccc(-c3cnc(N4CC[C@H](F)C4)c(C#N)c3)n2)cn1", "IC50": "< 0.03 µM"}
{"Smiles data": "N#Cc1cc(-c2ccnc(Nc3ccc(CN4CCOCC4)nc3)n2)cnc1NC1CCCC1", "IC50": "< 0.1 µM"}

Query: Observed IC50 on IKKε (Homo sapiens (Human), UniProt Q14164) for CN1CCC(NC(=O)c2ccc(Nc3ncc(F)c(-c4cnc(N5CC[C@H](F)C5)c(C#N)c4)n3)cc2)CC1 , please.
Reply: < 0.015 µM

Query: Observed IC50 on IKKε (Homo sapiens (Human), UniProt Q14164) for N#Cc1nc(-c2ccnc(Nc3ccc(CN4CCOCC4)nc3)n2)ccc1N1CC[C@H](O)C1 , please.
Reply: < 0.03 µM
